# System: U2OS
# method summary: mean HPG incorporation (global translation) relative to DMSO (% of DMSO); higher = more protein synthesis
# assay setup: 1 µM; 24 h
Classify as follows. Reported mean HPG incorporation greater than or equal to 90: 1 (yes). Reported mean HPG incorporation below: 0 (no).

Reference set, count: 5
Problem: Could you tell me if the measured mean HPG incorporation of Cn1cc(-c2ccc3ncc(Cc4ccc5ncccc5c4)n3n2)cn1 [NVP-BVU972] reaches 90 or more?
Solution: 1 (yes)

Problem: Further, for CCC(=O)CCCCC[C@@H]1NC(=O)[C@H]2CCCCN2C(=O)[C@H]([C@@H](C)CC)NC(=O)[C@H](Cc2cn(OC)c3ccccc23)NC1=O [Apicidin] ?
Solution: 1 (yes)

Problem: Further, for COc1ccccc1S(=O)(=O)Nc1ccc2c(c1)CN(C)C(=O)N2 [PFI-1] ?
Solution: 1 (yes)

Problem: Further, for CC[C@@H]1/C=C(\C)C[C@H](C)C[C@H](OC)[C@H]2O[C@@](O)(C(=O)C(=O)N3CCCC[C@H]3C(=O)O[C@H](/C(C)=C/[C@@H]3CC[C@H](Cl)[C@H](OC)C3)[C@H](C)[C@@H](O)CC1=O)[C@H](C)C[C@@H]2OC [Pimecrolimus] ?
Solution: 1 (yes)

Problem: Further, for O=C(Nc1ccc(OC(F)(F)F)cc1)c1sccc1NCc1ccnc2ccccc12 [OSI-930] ?
Solution: 1 (yes)

Next:
Problem: Could you tell me if the measured mean HPG incorporation of `C[C@@H]1CN(CC(=O)Nc2ccc3c(c2)Cc2cccc(-c4cc(=O)cc(N5CCOCC5)o4)c2S3)C[C@H](C)O1` reaches 90 or more?
Solution: 0 (no)

* * *

# Test system: U2OS
# method summary: mean OPP incorporation (global translation) relative to DMSO (% of DMSO); higher = more protein synthesis
# assay setup: 3 µM; 24 h
Where a name gives a salt, the structure may show the parent alone.
What mean OPP incorporation was measured for each of the following?
Give bare numbers.

Please review the entries below; each comes with its answer.
Problem: Would you mind telling me what mean OPP incorporation value was observed for `O=c1cc(N2CCOCC2)oc2c(-c3cccc4c3sc3ccccc34)cccc12` ?
Solution: 107

Problem: Further, for `CCOc1cc(C(=O)Nc2ccc(Cl)c(-c3nc4ccccc4[nH]3)c2)cc(OCC)c1OCC` ?
Solution: 114

Problem: Further, for `Nc1ccc(-c2cccc3c(=O)cc(N4CCOCC4)oc23)cc1` ?
Solution: 83.1

Problem: Further, for `Cc1c(C)c2c(c(C)c1O)CC[C@](C)(CN1CCN(c3cc(N4CCCC4)nc(N4CCCC4)n3)CC1)O2` ?
Solution: 97.2

Problem: Further, for O=[N+]([O-])c1ccccc1S(=O)(=O)NCC1CCC(CNCC2CCc3ccccc3C2)CC1 (stereo not drawn) [NTNCB hydrochloride] ?
Solution: 115

// for each compound in input: emit mean OPP incorporation
1. CC(C)n1nc(-c2cc3cc(O)ccc3[nH]2)c2c(N)ncnc21
2. N#CC(c1ccnc(NCCc2cccnc2)n1)c1nc2ccccc2s1 (stereo not drawn)
3. COc1ccccc1N1CCN(CCN2C(=O)c3ccccc3C(C)(C)C2=O)CC1 [ARC 239 dihydrochloride]

Solution:
37.4
127
117

* * *

# System: U2OS
# method summary: mean HPG incorporation (global translation) relative to DMSO (% of DMSO); higher = more protein synthesis
# assay setup: 10 µM; 24 h
Counter-ions that a name gives are not always drawn.
assay readout: mean HPG incorporation
Numbers only.

Problem: Would you mind telling me what mean HPG incorporation value was observed for `C=CC[C@@H]1/C=C(\C)C[C@H](C)C[C@H](OC)[C@H]2O[C@@](O)(C(=O)C(=O)N3CCCC[C@H]3C(=O)O[C@H](/C(C)=C/[C@@H]3CC[C@@H](O)[C@H](OC)C3)[C@H](C)[C@@H](O)CC1=O)[C@H](C)C[C@@H]2OC` ?
Solution: 133

Problem: Further, for `Oc1ccc(Nc2nc(-c3ccc(Cl)cc3)cs2)cc1` ?
Solution: 55.7

Problem: Further, for `Nc1ccc(-c2cccc3c(=O)cc(N4CCOCC4)oc23)cc1` ?
Solution: 41.5

Next:
Problem: Would you mind telling me what mean HPG incorporation value was observed for CCN(CC)CCOc1ccc(C(=C(Cl)c2ccccc2)c2ccccc2)cc1 [Clomiphene citrate (Z,E)] ?
Solution: 123

* * *

What mean HPG incorporation was measured for each of the following?
# System: U2OS
# method summary: mean HPG incorporation (global translation) relative to DMSO (% of DMSO); higher = more protein synthesis
# assay setup: 10 µM; 24 h
Structures can show the parent of a compound that is named as a salt.
Numbers only.

Problem: Would you mind telling me what mean HPG incorporation value was observed for `Cc1cn(-c2cc(NC(=O)c3ccc(C)c(Nc4nccc(-c5cccnc5)n4)c3)cc(C(F)(F)F)c2)cn1` ?
Solution: 92.5

Problem: Further, for `COc1nc(-c2ccc3c(c2)OCO3)n(-c2ccc(NC(=O)CSc3ccccc3)cc2)n1` ?
Solution: 93.3

Problem: Further, for `CCOc1cc(C(=O)Nc2ccc(Cl)c(-c3nc4ccccc4[nH]3)c2)cc(OCC)c1OCC` ?
Solution: 74.1

Problem: Further, for `C[C@@H]1CN(CC(=O)Nc2ccc3c(c2)Cc2cccc(-c4cc(=O)cc(N5CCOCC5)o4)c2S3)C[C@H](C)O1` ?
Solution: 55

// for each compound in input: emit mean HPG incorporation
1. O=C(Nc1ccc(OC(F)(F)F)cc1)c1sccc1NCc1ccnc2ccccc12
2. CCCc1cc(C)[nH]c(=O)c1CNC(=O)c1cc(-c2ccc(N3CCN(C(C)C)CC3)nc2)cc2c1cnn2C(C)C

Solution:
1. 64.2
2. 77.1

// for each compound in input: emit mean HPG incorporation
1. COc1ccccc1N1CCN(CCN2C(=O)c3ccccc3C(C)(C)C2=O)CC1 [ARC 239 dihydrochloride]
2. O=c1cc(N2CCOCC2)oc2c(-c3cccc4c3sc3ccccc34)cccc12

Solution:
1: 122; 2: 61.8

* * *

# Tested on: U2OS
# method summary: mean HPG incorporation (global translation) relative to DMSO (% of DMSO); higher = more protein synthesis
# assay setup: 1 µM; 24 h
assay readout: mean HPG incorporation
Answers are plain numbers.

Problem: Would you mind telling me what mean HPG incorporation value was observed for C[C@]12CC[C@@H]3c4ccc(O)cc4C[C@@H](CCCCCCCCC[S+]([O-])CCCC(F)(F)C(F)(F)F)[C@H]3[C@@H]1CC[C@@H]2O (stereo partly drawn) [Fulvestrant] ?
Solution: 118

Problem: Further, for Cc1ccc(NC(=O)c2ccc(CN3CCN(C)CC3)cc2)cc1Nc1nccc(-c2cccnc2)n1 [Imatinib (STI571)] ?
Solution: 91.5

Let us examine a further case.
Problem: Would you mind telling me what mean HPG incorporation value was observed for C=CC[C@@H]1/C=C(\C)C[C@H](C)C[C@H](OC)[C@H]2O[C@@](O)(C(=O)C(=O)N3CCCC[C@H]3C(=O)O[C@H](/C(C)=C/[C@@H]3CC[C@@H](O)[C@H](OC)C3)[C@H](C)[C@@H](O)CC1=O)[C@H](C)C[C@@H]2OC [FK-506 (Tacrolimus)] ?
Solution: 121

* * *

# Tested on: U2OS
# method summary: mean HPG incorporation (global translation) relative to DMSO (% of DMSO); higher = more protein synthesis
# assay setup: 1 µM; 24 h
Classify as follows. Reported mean HPG incorporation greater than or equal to 90: 1.0. Reported mean HPG incorporation below: 0.0.

Reference set, count: 2
Problem: Could you tell me if the measured mean HPG incorporation of `CCn1c(-c2nonc2N)nc2cnc(Oc3cccc(NC(=O)c4ccc(OCCN5CCOCC5)cc4)c3)cc21` reaches 90 or more?
Solution: 0.0

Problem: Further, for `COc1nc(-c2ccc3c(c2)OCO3)n(-c2ccc(NC(=O)CSc3ccccc3)cc2)n1` ?
Solution: 1.0

Next:
Problem: Could you tell me if the measured mean HPG incorporation of CC1=C(/C=C/C(C)=C/C=C/C(C)=C/C(=O)Nc2ccc(O)cc2)C(C)(C)CCC1 [Fenretinide] reaches 90 or more?
Solution: 1.0

Problem: Further, for `CC(C)n1nc(-c2cc3cc(O)ccc3[nH]2)c2c(N)ncnc21` ?
Solution: 0.0

* * *

# System: U2OS
# method summary: mean OPP incorporation (global translation) relative to DMSO (% of DMSO); higher = more protein synthesis
# assay setup: 3 µM; 24 h
assay readout: mean OPP incorporation

Please review the entries below; each comes with its answer.
Problem: Would you mind telling me what mean OPP incorporation value was observed for `CC(C)(C)c1nc(-c2cccc(NS(=O)(=O)c3c(F)cccc3F)c2F)c(-c2ccnc(N)n2)s1` ?
Solution: 97.2

Problem: Further, for `COc1cc(NC(=O)c2ccccn2)ccc1Cl` ?
Solution: 79.6

Let us examine a further case.
Problem: Would you mind telling me what mean OPP incorporation value was observed for `CCn1c(-c2nonc2N)nc2cnc(Oc3cccc(NC(=O)c4ccc(OCCN5CCOCC5)cc4)c3)cc21` ?
Solution: 97.5

From: the supplement of paper PMC8183993
